Molecular target: T1, TNFR1 (Homo sapiens, UniProt P19438)
T1 chain: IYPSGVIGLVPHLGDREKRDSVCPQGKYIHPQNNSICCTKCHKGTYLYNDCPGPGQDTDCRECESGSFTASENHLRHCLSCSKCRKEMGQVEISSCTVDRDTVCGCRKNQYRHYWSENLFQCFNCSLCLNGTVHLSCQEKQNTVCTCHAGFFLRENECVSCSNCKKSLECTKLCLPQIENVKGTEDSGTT
Assay: yeast display SC50
experimental endpoint: apparent Kd (screen) (nM)
Lab book: enter the figure in nM, no units written.

Consider V100L (designed binder) MTLQELLREEALRRAEAEAFRYALELLAEKFPEQKEYLLDLAEEIESQIRSLSGVDVEDVRKFLDKEWAWVKELLAEHPAELAEVEAARAARLAELRAELEAKVAA . Its measured apparent Kd (screen) is 0.49

Consider F20N (designed binder) MTLQELLREEALRRAEAEANRYALELLAEKFPEQKEYLLDLAEEIESQIRSLSGVDVEDVRKFLDKEWAWVKELLAEHPAELAEVEAARAARLAELRAEVEAKVAA . Its measured apparent Kd (screen) is 0.446

Entry source: paper PMC12416549
